tgt: Melanin-concentrating hormone receptor 1 (Homo sapiens) (UniProt Q99705)
assay_name: antagonism of human MCHR1 receptor – cell-based, fluorescence, counter-screen for GPR7 antagonist project (AID 2148)
test_parameters: MCHR1-expressing cells, fluorescence antagonist assay; at 4.4 µM
Among all 2,400 compounds or so, about 1,500 (62%) were called active. Rule as the data show it: active = inhibition above about 22%; inactive = the rest. The set was probably picked from earlier hits. The list is a sample of the results.
// one of T (active), F (inactive), no free text

Query :: Hey, what did the test say about O=C(NCCNc1ccc([N+](=O)[O-])cc1Cl)c1ccccc1F ?
Result :: T

Query :: Hey, what did the test say about O=C(Nc1ccc2c(c1)OCO2)C1CC(c2c(F)cccc2Cl)=NO1 (centres undefined) ?
Result :: F

Query :: Hey, what did the test say about Cc1ccc(C(=O)C[n+]2cc(-c3ccccc3)n3c2CCCCC3)cc1 ?
Result :: F

Query :: Hey, what did the test say about O=C(Nc1ccc2ccccc2c1)Nc1ccc2snnc2c1 ?
Result :: T
